Origin of measurements: the RNAGym collection of RNA variant scans (doi:10.1093/nar/gkz1192)

B1: CPEB3 Ribozyme (parent)
chain: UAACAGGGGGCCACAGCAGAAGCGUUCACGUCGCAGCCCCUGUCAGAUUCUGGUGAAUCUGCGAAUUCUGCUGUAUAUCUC

Variants of: B1
Protocol text: self-cleavage, relative activity (ratio to wild type); higher = more cleavage; in vitro, sequencing
Property label: self-cleavage
Kindly provide the number alone.

Problem: State its self-cleavage for this variant: UAACAGGGGGCCACAGCAGAAGCGUUCACGUCGCAGCCCCUGCCAUAUUCUGGUGAAUCUGCGAAUUCUGCUGUAUAUCUC [U43C G46U]
Solution: 0.16

Problem: State its self-cleavage for this variant: UAACAGGGGGCCACAGCAGAAGCGUUCACGUCGCAGCCCCUGUCAGAUUCUGGUGAAUCUGCGAAAUCUGCUGCAUAUCUC [U66A U74C]
Solution: 0.86

Problem: State its self-cleavage for this variant: UAACAGGGGGCCACAGUAGAAGCGUUCACGUCGCAGCCCCUGUCAGAUUCUGGUGAAUCUGCGAAUCCUGCUGUAUAUCUC [C17U U67C]
Solution: 0.22

Problem: State its self-cleavage for this variant: UAACAGGGGGCCACAGCAGAAGCGUUCACGUCGCAGCCCCCGUCAGAUUCUGGUGAAUCUGUGAAUUCUGCUGUAUAUCUC [U41C C62U]
Solution: 0.17

Problem: State its self-cleavage for this variant: UAACAGGGGGCUACAGUAGAAGCGUUCACGUCGCAGCCCCUGUCAGAUUCUGGUGAAUCUGCGAAUUCUGCUGUAUAUCUC [C12U C17U]
Solution: 1.13

Problem: State its self-cleavage for this variant: UAACAGGGGGCCACAGCAGAAGCUUUCACGUCGCAGCCCCUGUCAGAUUCUGGUGAAUCUGCGUAUUCUGCUGUAUAUCUC [G24U A64U]
Solution: 0.3

Problem: State its self-cleavage for this variant: UAACAGGGGGCCUCAGCAGAAGCGUUCACGUCCCAGCCCCUGUCAGAUUCUGGUGAAUCUGCGAAUUCUGCUGUAUAUCUC [A13U G33C]
Solution: 0.2

Problem: State its self-cleavage for this variant: UAACCGGGGGCCACAGCAGAAGCGUUCACGUCGCAGCCCCUGUCAGAUUCUGGUGAAUCUGCGAAUUCUGCCGUAUAUCUC [A5C U72C]
Solution: 1.09

Problem: State its self-cleavage for this variant: UACCAGGGGGCCACAGCAGAAGCGUUCACGUCGCAGCCCCUGUCAGAUUCUGGUGAAUCUGCGAAUUCUGCUGUAUUUCUC [A3C A77U]
Solution: 1.03

Problem: State its self-cleavage for this variant: UAACAGGGGGCCACAGCAGAAGCGUUCACGUCGCAGCCACUGUCAGAUUCUGGUGAAUCUGCGAAUUCAGCUGUAUAUCUC [C39A U69A]
Solution: 0.22

Problem: State its self-cleavage for this variant: UAACAGGGGGCCACAGCAGAAGCGUUCACGUCGCAGCCCCUGUCAGAUUCUGGUGAAUCUGCGAAUUCUGCUGCAUAUCUA [U74C C81A]
Solution: 1.26

Problem: State its self-cleavage for this variant: UAACAGGGGGCCACAGCAGAAGCGUUCACGUCGCAGCCCCUGUCAGAUUCUGGUGAAUCUGCGAACUCUGCUCUAUAUCUC [U66C G73C]
Solution: 0.58

Problem: State its self-cleavage for this variant: UAACAGGGGGCCACAGCAGAAGCGUUUACGUCGCUGCCCCUGUCAGAUUCUGGUGAAUCUGCGAAUUCUGCUGUAUAUCUC [C27U A35U]
Solution: 0.32

Problem: State its self-cleavage for this variant: UAACAGGGGGCCACAGCAGAAGCGUUCACGGCGCAGCCCCUGUCAGAUUCUGGUGGAUCUGCGAAUUCUGCUGUAUAUCUC [U31G A56G]
Solution: 0.45

Problem: State its self-cleavage for this variant: UAACAGGGGGCCACAGCAGAAGCGUUCACGUCGCGGCCCCUGUCAGAUUCUGGUGAAUCUGCGAAUUCGGCUGUAUAUCUC [A35G U69G]
Solution: 1.33

Problem: State its self-cleavage for this variant: UAACAGGGGGCCACAGCAGAAGCGUUCAAGUCGCUGCCCCUGUCAGAUUCUGGUGAAUCUGCGAAUUCUGCUGUAUAUCUC [C29A A35U]
Solution: 0.51

Problem: State its self-cleavage for this variant: UAACAGGGGGCCACAGAAGAAGCGUUCACGUCGCAGCCCCUGUCAGAUUCUGGUGAAUCUGGGAAUUCUGCUGUAUAUCUC [C17A C62G]
Solution: 0.17

Problem: State its self-cleavage for this variant: UAACAGGAGGCCACAGCAGAAGCGUUCACGUCGCAGCCCCUGUCAGAUUUUGGUGAAUCUGCGAAUUCUGCUGUAUAUCUC [G8A C50U]
Solution: 0.12

Problem: State its self-cleavage for this variant: UAACAGGGGGCCACAGCAGAAGUGUUCACGUCGCAGCCCCUGUCAGAUUCUGGUGAAUCUGCGAAUUCUGCCGUAUAUCUC [C23U U72C]
Solution: 0.48

Problem: State its self-cleavage for this variant: UAACAGGGGGCCACAGCAGAAGCGUUCACGUCGCAGCCCCCGUCAGAGUCUGGUGAAUCUGCGAAUUCUGCUGUAUAUCUC [U41C U48G]
Solution: 0.55

Problem: State its self-cleavage for this variant: UAACAGGGGGCCACAGCAGAAGCGUUCACGUCGCCGCCCCUGUCAGAUUCUGGUGAAUCUGCGAAUUCUGCUGUAUAUCCC [A35C U80C]
Solution: 0.84

Problem: State its self-cleavage for this variant: UAACAGGGGCCCAUAGCAGAAGCGUUCACGUCGCAGCCCCUGUCAGAUUCUGGUGAAUCUGCGAAUUCUGCUGUAUAUCUC [G10C C14U]
Solution: 0.5
